# test-summary: small-molecule microarray binders of probe aNog, primary screen, biochemical, biotinylated probe, 635/667 nm fluorescence (AID 1115);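 also: probe is biotinylated aNog protein used at 0.15 µg/mL for 1 h at 4 C; z-score combines 667 nm fluorescence of each spot with its signal to noise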
# condition-label: higher = more signal
readout-type: composite z-score
# respond with the number and nothing more

Given the entry CC(C)(C)OC(=O)CC[C@]1(C(=O)NCCN2CCOCC2)N=C(c2ccc(OCCCO)cc2)O[C@H]1c1ccccc1N=[N+]=[N-] , report its measured composite z-score.
1.73

# input compound: COc1ccc([Si](C)(C)[C@@H]2[C@@H](CCO)O[C@]3(C(=O)N(Cc4cccc(N5C(=O)c6cccc7cccc5c67)c4)c4ccccc43)[C@H]2C)cc1 ; wanted: its composite z-score
0.0601

What composite z-score value was documented for this compound, CC(C)NC(=O)[C@@]1(C)c2ccccc2C(=O)N(C(C)C)[C@H]1c1ccc(CO)cc1 ?
-0.435

// lookup composite z-score for COCCOC(=O)N1C(=O)[C@@]2(c3cc(C#CC4=CCCCC4)ccc31)[C@H](c1ccc(O)cc1)N1[C@H](c3ccccc3)[C@H](c3ccccc3)OC(=O)[C@H]1[C@@H]2C(=O)Nc1nc2ccccc2s1
-0.482

For the compound shown here, CCOC(=O)[C@H]1C/C=C/C[C@H](C(=O)OCC)C(=O)O[C@H]2[C@@H](OC)O[C@H](CO)[C@@H](OC(=O)Nc3ccc(OC)cc3)[C@@H]2OC1=O , give the reported composite z-score.
0.206

Dear colleague, I am looking for the recorded composite z-score of the following compound: CCOC(=O)C1=CC[C@@H](c2ccc([N+](=O)[O-])cc2)N(S(=O)(=O)c2ccc(C)cc2)[C@H]1c1ccccc1
0.506
